Provide the reported TGI of each item.
system: RPMI-8226 leukemia; test: NCI tumour cell line growth inhibition, 48 h

CC(C)Nc1ccc(Nc2ccccc2)cc1    19.5 µM

Here are 3 molecules. What values of TGI were reported for them?
1. O=S(=O)(Cc1ccc(Cl)cc1Cl)c1ccc(Cl)cc1
2. CS(=O)(=O)OC1CN2CCC1CC2 (stereo unspecified)
3. O=c1[nH]c2ccc(Cl)cc2c2oc(-c3ccccc3)nc12

Result:
1: > 69.7 µM; 2: > 100 µM; 3: 64.7 µM

Report TGI for each item below.
1. O=S(=O)(O)CCCC1S(=O)(=O)OCCOS1(=O)=O
2. CC1(Cl)CC2OC3(Br)C=CC(C)(O)C2(CC1Br)C3(C)C (stereo unspecified)

Result:
> 100 µM
> 100 µM
